Test system: SN12C renal
TEST DETAILS: NCI-60 one-dose screen, 48 h (100 = growth as untreated, 0 = no growth, -100 = all killed)
CONDITION NOTES: 10 µM unless noted
About 83,000 compounds went through this panel and 20% of them were active in at least one assay; those are over-represented in the sample as a whole.
MEASUREMENT NAME: growth (%)
One number for each entry, in %.

Example results:
Item under review: Cn1cc(-c2csc(-c3cn(CCN4CCOCC4)c4ccc(F)cc34)n2)c2cccnc21 . Reported growth?
61.4

Item under review: O=C(N/N=C\c1ccc(N(CCCl)CCCl)cc1Cl)c1cccnc1 . Reported growth?
79.2

Item under review: Cn1cc(-c2csc(-c3cn(CCCCN4CCCCC4)c4ccccc34)n2)c2cccnc21 . Reported growth?
81.8

More entries:
Item under review: CNC(=O)Oc1ccc(N(C)C)cc1C(C)C . Reported growth?
98.2

---

System: HOP-92 NSCLC
TEST DETAILS: NCI-60 one-dose screen, 48 h (100 = growth as untreated, 0 = no growth, -100 = all killed)
CONDITION NOTES: 10 µM unless noted
About 83,000 compounds went through this panel and 20% of them were active in at least one assay; those are over-represented in the sample as a whole.
Classify by measured growth: class 1 if it is equal to or exceeds 20%, class 0 if it is smaller.

Below are worked cases with known answers.
Hi, just wondering whether CC(C)CCC1(CCCl)C(=O)NC(=O)NC1=O shows growth of 20% or higher.
class 1

Hi, just wondering whether Cc1cc(-c2nc3cc(F)ccc3[se]2)cc(F)c1N shows growth of 20% or higher.
class 1

Hi, just wondering whether Clc1ccc(N2COOC3(OOC2)C2CC4CC(C2)CC3C4)cc1 shows growth of 20% or higher.
class 0

More entries:
Hi, just wondering whether CC1[C@H](C)OC(=O)CC(O)CC(O)CC(O)CCC(O)C(O)C[C@]2(O)CC(O)C(C(=O)O)C(CC(OC3O[C@H](C)[C@@H](O)[C@H](N)[C@@H]3O)/C=C/C=C/C=C/C=C/CC/C=C/C=C/[C@H](C)[C@H]1O)O2 (stereo partly drawn) shows growth of 20% or higher.
class 1

Hi, just wondering whether CC12CC=CCC1CCC1C2CCC2(C)C(c3ccc(=O)oc3)CCC12O (stereo not drawn) shows growth of 20% or higher.
class 0

Hi, just wondering whether O=C(CC1(O)C(=O)N(Cc2ccccc2)c2ccc(Br)cc21)c1ccc(C(=O)NCC2CCC3(CC2)OOC2(CCCCC2)OO3)cc1 (stereo not drawn) shows growth of 20% or higher.
class 0

Hi, just wondering whether COc1ccc(N(CC(=O)NCCC[Te]c2ccccc2)C(=O)CCSC2=C(C)C(=O)c3ccccc3C2=O)cc1 shows growth of 20% or higher.
class 0

---

Test system: SK-OV-3 ovarian
TEST DETAILS: NCI-60 one-dose screen, 48 h
CONDITION NOTES: 10 µM unless noted
Description: Growth inhibition of the SK-OV-3 human tumor cell line is measured as a screen for anti-cancer activity. Cells are grown in 96 well plates and exposed to the test compound for 48 hours. Compounds are tested at a single concentration, which is 10^-5 M for most compounds. The reported endpoint is percent growth (GI% or GIPRCNT), where numbers from 0 - 100% represent growth inhibition, and numbers from -100% - 0 represent cell death. For example, a value of 40 represents 60% growth inhibition. […]
This is part of a sample that, as a whole, favours compounds with a hit. Of some 83,000 tested, about 20% had one in any assay. Active and inactive are the calls of the source. Rule for the calls: active = growth percent below 10; inactive = the rest.
Write down the outcome that applies. Available outcomes: active, inactive

Which result was noted for this compound in the test: CN1CC(=O)N(O)C1(C)c1cccnc1 (stereo not drawn)
inactive

Which result was noted for this compound in the test: Fc1ccc(N2COOC3(OOC2)C2CC4CC(C2)CC3C4)cc1
inactive

Which result was noted for this compound in the test: C[CH2][Sn]([Cl])([Cl])[CH2]C.Oc1ccccc1C=NCCN=Cc1ccccc1O
inactive

More entries:
Which result was noted for this compound in the test: CC[C@H](C)[C@H](NC(=O)[C@H]1CCCCN1C)C(=O)N(C)[C@H](C[C@@H](OC(C)=O)c1nc(C(=O)NC23CC(C(=O)OC)(C2)C3)cs1)C(C)C
inactive

Which result was noted for this compound in the test: Nc1cc2nc3ccccc3nc2cc1N
inactive

---

System: CAKI-1 renal
TEST DETAILS: NCI-60 one-dose screen, 48 h (100 = growth as untreated, 0 = no growth, -100 = all killed)
CONDITION NOTES: 10 µM unless noted
Compounds without any hit were thinned out: in the full panel of roughly 83,000, 20% have a hit.
MEASUREMENT NAME: growth (%)
Numbers only, in %.

Item under review: CC(C)=CCc1c(O)c(C(=O)CC(C)C)c(O)c2c(-c3ccccc3)cc(=O)oc12 . Reported growth?
52.4

I have 5 compounds here; please give me growth for each one.
1. COc1ccc(Nc2ccnc3cc(Cl)ccc23)cc1CN(CCCl)CCCl
2. COc1cc(C=Nc2cccc(C(=O)O)c2)ccc1N(CCCl)CCCl
3. COC[C@@H]1C[C@@]2(C)[C@@H](CC[C@@H]3[C@@H]2CC[C@@]2(C)[C@H]3CC[C@]2(C)O)CC1=O
4. CN[C@]1(c2ccccc2Cl)CCCC[C@H]1NCCCN1CCN(C)CC1
5. CCC(O)(CN)c1ccccc1 (stereo unspecified)

1: -63.9; 2: 95; 3: 94.4; 4: 87.3; 5: 96.3

---

Test system: MDA-MB-435 melanoma
TEST DETAILS: NCI-60 one-dose screen, 48 h
CONDITION NOTES: 10 µM unless noted
This is part of a sample that, as a whole, favours compounds with a hit. Of some 83,000 tested, about 20% had one in any assay. The source made the active and inactive calls. The calls were made as follows: active = growth percent below 10; inactive = the rest.
Write down the outcome that applies. Available outcomes: yes (1) for active, no (0) for inactive

Which result was noted for this compound in the test: CCCCCCC(=O)NC1=C(N2CC2)C(=O)C(NC(=O)CCCCCC)=C(N2CC2)C1=O
no (0)

More entries:
Which result was noted for this compound in the test: O=C1C(Cl)=C(N2CCOCC2)C(=O)c2ccccc21
no (0)

Which result was noted for this compound in the test: O=C(CC1(O)C(=O)N(Cc2ccccc2)c2ccc(F)cc21)c1ccc(C(=O)NCC2CCC3(CC2)OOC2(CCCCC2)OO3)cc1 (centres undefined)
yes (1)

Which result was noted for this compound in the test: CN[C@]1(c2ccccc2Cl)CCCC[C@H]1NCCCN1CCN(C)CC1
no (0)

Which result was noted for this compound in the test: Cc1c(C)c([N+](=O)[O-])c(C)c(C)c1[N+](=O)[O-]
no (0)

Which result was noted for this compound in the test: CCCCN1CCCC[C@@H]1C(=O)N[C@H](C(=O)N(C)[C@H](CCc1nc(C(=O)N[C@@H](Cc2ccccc2)C[C@H](C)C(=O)OC)cs1)C(C)C)[C@@H](C)CC
yes (1)

---

Tested on: SF-295 CNS
TEST DETAILS: NCI-60 one-dose screen, 48 h
CONDITION NOTES: 10 µM unless noted
About 83,000 compounds went through this panel and 20% of them were active in at least one assay; those are over-represented in the sample as a whole. Active and inactive are the calls of the source. The calls were made as follows: active = growth percent below 10; inactive = the rest.
Write down the outcome that applies. Available outcomes: active, inactive

Below are worked cases with known answers.
Which result was noted for this compound in the test: C=C(C)[C@@]12OC3(/C=C/C=C/CCCCC)O[C@@H]1[C@@H]1[C@@H]4O[C@]4(CO)[C@@H](O)[C@]4(O)C(=O)C(C)=C[C@H]4[C@@]1(O3)[C@H](C)[C@H]2OC(=O)c1ccccc1
inactive

Which result was noted for this compound in the test: CCC[CH2][Sn]([CH2]CCC)([CH2]CCC)[O]c1ccc(Cl)cc1Cl
active

Which result was noted for this compound in the test: CN1C(=O)C(=Cc2cn(Cc3ccccc3)c3ccccc23)C(=O)N(C)C1=O
inactive

Which result was noted for this compound in the test: CN[C@]1(c2ccccc2Cl)CCCC[C@H]1NCCCN1CCN(C)CC1
inactive

Which result was noted for this compound in the test: O=C1CNC(c2ccccc2)c2cc(Cl)ccc2N1 (configuration not stated)
inactive

Which result was noted for this compound in the test: CCCCN1CCCC[C@@H]1C(=O)N[C@H](C(=O)N(C)[C@H](C[C@@H](OC(C)=O)c1nc(C(=O)NC2CCC(C(=O)OC)CC2)cs1)C(C)C)C(C)C (some centres not stated)
inactive

More entries:
Which result was noted for this compound in the test: COC(=O)[C@@]1(C)CC[C@]2(C)CC[C@]3(C)C4=CC(=O)c5c(cc(O)c(O)c5C)[C@]4(C)CC[C@@]3(C)[C@@H]2C1
inactive

---

System: ACHN renal
TEST DETAILS: NCI-60 one-dose screen, 48 h (100 = growth as untreated, 0 = no growth, -100 = all killed)
CONDITION NOTES: 10 µM unless noted
The panel holds about 83,000 compounds, 20% with a hit somewhere; the sample as a whole holds those more often.
Hi there, I'd appreciate the recorded growth for every entry that follows.
One number for each entry, in %.

Item under review: CNC(=O)Oc1ccc(C(C)(C)C)cc1OC(=O)NC . Reported growth?
106

I have 3 compounds here; please give me growth for each one.
1. C[C@@]1(CCCCCCCCCc2ccc(O)cc2)C[C@]2(C)OC(=O)C[C@@H]2OO1
2. Brc1ccc2c(c1)c(-c1nc(-c3c[nH]c4ncccc34)cs1)cn2CCN1CCOCC1
3. CC(C)=CCC[C@H](C(=O)O)[C@@H]1CC[C@]2(C)C3=C(CC[C@@]12C)[C@@]1(C)CC[C@H](O)C(C)(C)[C@@H]1CC3

65.5
55.2
101

I have 2 compounds here; please give me growth for each one.
1. CN(C)C(=O)Oc1ccccc1-c1ccccc1
2. CCN(CC)CCOC(=O)C(OC(C)C)(c1ccccc1)c1ccccc1

[104, 104]
